- tested.system: PDL1, Q9NZQ7
- Sequence (Q9NZQ7 whole entry): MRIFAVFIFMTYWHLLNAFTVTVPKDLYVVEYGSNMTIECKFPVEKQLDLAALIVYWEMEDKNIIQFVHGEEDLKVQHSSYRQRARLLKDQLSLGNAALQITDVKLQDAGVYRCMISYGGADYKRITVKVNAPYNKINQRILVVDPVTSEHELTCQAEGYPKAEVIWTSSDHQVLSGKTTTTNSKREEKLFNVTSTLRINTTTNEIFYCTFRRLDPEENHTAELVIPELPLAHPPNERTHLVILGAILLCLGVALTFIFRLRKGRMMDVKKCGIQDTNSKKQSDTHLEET
Outcomes: active, inactive

| binder | category |
| --- | --- |
| d8r1_design_ppi_502_dldesign_0_cycle0_af2pred (protein) SFEEEKKKADEYMTKAAELAPPELKPAVQNMRDGILKAFEVSPKSALNLAKSALRWVKKHGSEEAAKEMEKALEHLEKAAE | inactive |
| d8r1_design_ppi_482_dldesign_0_cycle0_af2pred (protein) STTDEMIEKIAKAAQEAMKLAKEGKYEEAYALLKKMAEEAAKVSESLGALAKGVAEAMKNWIDKYKAEKA | inactive |
| d8r1_design_ppi_290_dldesign_0_cycle1_af2pred (protein) SKAEAEKLKAQIEAAKAAGVAGDAATAAAAIAAITALADQAAALDPEYAAEVVNAANKAMLAVGDAREAKAAA | inactive |
| d8r1_design_ppi_1244_dldesign_0_cycle0_af2pred (protein) EEEEKEEKETYEKAYYLAKAAINAVNTGKEAAVASGKAALIAAGKLIPEWAAEAKAAKTAEEIKAVAEKLAEAAKKKIE | inactive |
| d8r1_design_ppi_219_dldesign_0_cycle0_af2pred (protein) GERIKRNAEIVAATYAEVAALAAGEKEATARRAAGLLAAGAMSPEGREEYLAEALALAAEVGAEAAALVAEAAAAI | inactive |
| d8r1_design_ppi_877_dldesign_0_cycle1_af2pred (protein) ALAAEAAAAIAKARELLKEIKETGKESKSESVRRFAEGVARKVQALIDQAEAAAADPATALALAKAALKLAEEGLAAVKTLKKAYEE | inactive |
| d8r1_design_ppi_895_dldesign_0_cycle1_af2pred (protein) MTPEAKSAFAAAQSLADAIKLGAKEGLLTPETRAALVEKLRAAAAEAAALDPAIAPQAAALAADAEAAAA | active |
| d8r1_design_ppi_56_dldesign_0_cycle0_af2pred (protein) EAEKALKEAAEKIKKAAKEAEKDPEKAVEYFSEALAYAMRTAIKYPEIAAALGAAAAGLAEGAREAKKDVEKGVKIAEKAAKELEKA | inactive |
| d8r1_design_ppi_271_dldesign_0_cycle1_af2pred (protein) ADAALAALIAEAAQAAYDDGPRGIAALAGALLRAFPSLSAETLAAIIAATAADPAAAAALIAALAAAHPEAAPALAAELRALLAELA | inactive |
| d8r1_design_ppi_674_dldesign_0_cycle1_af2pred (protein) SEEKINQAWIDTSKASELILAGEELSVTDPEKGAALIEKGRALAEEAAKAVPSKAEAILSTAEKTLEVAKARAAEVAA | inactive |

Source: paper PMC13494018
